Reference for the values: ChEMBL document CHEMBL3351906

system: C6; assay: Inhibition of cell proliferation of rat C6 cells assessed as cell viability at 100 uM after 72 hrs by sulforhodamine B assay; assay type: functional; conditions: C6, 72 h, read-out: Activity
TEST READOUT: viability at 100 µM

Example entries and their recorded answers appear below.
INSERT INTO measurements (smiles_notation, assayed_target, test_readout, data_value) VALUES
  ('CC(C)=CCC[C@@](C)(O)[C@H]1CC[C@]2(C)[C@@H]1[C@H](O)C[C@@H]1[C@@]3(C)CC[C@H](O)C(C)(C)[C@@H]3[C@@H](O[C@@H]3O[C@H](CO)[C@@H](O)[C@H](O)[C@H]3O[C@@H]3O[C@@H](C)[C@H](O)[C@@H](O)[C@H]3O)C[C@]12C', 'C6', 'viability at 100 µM', '95.5%'),
  ('O=C(/C=C/c1ccc(O)c(O)c1)O[C@H]1[C@H](O)C[C@@](O)(C(=O)O)C[C@H]1O', 'C6', 'viability at 100 µM', '133%'),
  ('CC(C)=CCC[C@](C)(O)[C@H]1CC[C@]2(C)[C@@H]1[C@H](O)C[C@@H]1[C@@]3(C)CC[C@H](O[C@@H]4O[C@H](CO)[C@@H](O)[C@H](O)[C@H]4O[C@@H]4O[C@H](CO)[C@@H](O)[C@H](O)[C@H]4O)C(C)(C)[C@@H]3CC[C@]12C', 'C6', 'viability at 100 µM', '53.1%');

Now consider the entry below.
Task: Give viability at 100 µM only, for CC1(C)CC[C@]2(C(=O)O)CC[C@]3(C)C(=CC[C@@H]4[C@@]5(C)CC[C@H](O)C(C)(C)[C@@H]5CC[C@]43C)[C@@H]2C1 , using C6 data.
Result: 59.2%

====

test system: C6; experiment: Inhibition of cell proliferation of rat C6 cells assessed as cell viability at 100 uM after 72 hrs by sulforhodamine B assay; assay type: functional; conditions: C6, 72 h, read-out: Activity
TEST READOUT: viability at 100 µM (%)
Answers are plain numbers, in %.

INSERT INTO assay_data (molecule, unit_label, data_value) VALUES
  ('CC(C)=CCC[C@](C)(O[C@@H]1O[C@H](CO[C@H]2O[C@H](CO)[C@@H](O)[C@@H]2O)[C@@H](O)[C@H](O)[C@H]1O)[C@H]1CC[C@]2(C)[C@@H]1[C@H](O)C[C@@H]1[C@@]3(C)CC[C@H](O)C(C)(C)[C@@H]3[C@@H](O)C[C@]12C [GINSENOSIDE F5]', '%', 92.8);

Next:
Task: Please list viability at 100 µM recorded for the molecule CC(C)=CCC[C@](C)(O[C@@H]1O[C@H](CO)[C@@H](O)[C@H](O)[C@H]1O)[C@H]1CC[C@]2(C)[C@@H]1[C@H](O)C[C@@H]1[C@@]3(C)CC[C@H](O[C@@H]4O[C@H](CO)[C@@H](O)[C@H](O)[C@H]4O[C@@H]4O[C@H](CO)[C@@H](O)[C@H](O)[C@H]4O)C(C)(C)[C@@H]3[C@@H](O)C[C@]12C
Result: 97.5

====

Kindly supply the reported viability at 100 µM values for the records listed here.
test system: U-251; assay: Inhibition of cell proliferation of human U251 cells assessed as cell viability at 100 uM after 72 hrs by sulforhodamine B assay; type: functional; details: U-251, 72 h, read-out: Activity
One number for each entry, in %.

Completed entries (count: 3):
INSERT INTO assay_data (compound, data_value) VALUES
  ('C[C@@H]1O[C@@H](OC[C@H]2O[C@@H](Oc3c(-c4ccc(O)c(O)c4)oc4cc(O)cc(O)c4c3=O)[C@H](O)[C@@H](O)[C@@H]2O)[C@H](O)[C@H](O)[C@H]1O [RUTIN]', 61.5),
  ('C/C=C(/C)C(=O)O[C@H]1[C@H](O)[C@]2(COC(C)=O)[C@H](O)C[C@]3(C)C(=CC[C@@H]4[C@@]5(C)CC[C@H](O[C@@H]6O[C@H](C(=O)O)[C@@H](O[C@@H]7O[C@H](CO)[C@@H](O)[C@H](O)[C@H]7O)[C@H](O)[C@H]6O[C@@H]6O[C@H](CO)[C@@H](O)[C@H](O)[C@H]6O)[C@](C)(CO)[C@@H]5CC[C@]43C)[C@@H]2CC1(C)C [ISOESCIN IB]', 29.7),
  ('CC(C)=CCC[C@](C)(O)[C@H]1CC[C@]2(C)[C@@H]1[C@H](O)C[C@@H]1[C@@]3(C)CC[C@H](O)C(C)(C)[C@@H]3[C@@H](O[C@@H]3O[C@H](CO)[C@@H](O)[C@H](O)[C@H]3O[C@@H]3OC[C@@H](O)[C@H](O)[C@H]3O)C[C@]12C', 108);

Task: State its viability at 100 µM for this compound: CC(C)=CCC[C@@H](C)[C@H]1CC[C@]2(C)[C@@H]1[C@H](O)C[C@@H]1[C@@]3(C)CC[C@H](O)C(C)(C)[C@@H]3[C@@H](O)C[C@]12C
Result: 49.4

====

system: C6; test: Inhibition of cell proliferation of rat C6 cells assessed as cell viability at 100 uM after 72 hrs by sulforhodamine B assay; type: functional; settings: C6, 72 h, read-out: Activity
Flag rule - viability at 100 µM less than 80% flags TRUE; the remaining entries get FALSE.

Illustrative cases are given below, each with its answer.
INSERT INTO results (compound, group) VALUES
  ('CC(C)=CCC[C@](C)(O)[C@H]1CC[C@]2(C)[C@@H]1[C@H](O)C[C@@H]1[C@@]3(C)CC[C@H](O)C(C)(C)[C@@H]3[C@@H](O[C@@H]3O[C@H](CO)[C@@H](O)[C@H](O)[C@H]3O[C@@H]3OC[C@@H](O)[C@H](O)[C@H]3O)C[C@]12C', 'TRUE'),
  ('CC(C)=CCC[C@](C)(O)[C@H]1CC[C@]2(C)[C@@H]1[C@H](O)C[C@@H]1[C@@]3(C)CC[C@H](O)C(C)(C)[C@@H]3[C@@H](O[C@@H]3O[C@H](CO)[C@@H](O)[C@H](O)[C@H]3O[C@@H]3O[C@@H](C)[C@H](O)[C@@H](O)[C@H]3O)C[C@]12C [GINSENOSIDE RG2]', 'FALSE'),
  ('C[C@@H]1O[C@@H](OC[C@H]2O[C@@H](Oc3c(-c4ccc(O)c(O)c4)oc4cc(O)cc(O)c4c3=O)[C@H](O)[C@@H](O)[C@@H]2O)[C@H](O)[C@H](O)[C@H]1O [RUTIN]', 'TRUE'),
  ('C/C=C/C(=O)OC[C@H]1O[C@@H](O[C@H]2[C@H](O[C@H]3CC[C@]4(C)[C@H]5C[C@@H](O)[C@@H]6[C@@H]([C@](C)(CCC=C(C)C)O[C@@H]7O[C@H](CO[C@@H]8O[C@H](CO)[C@@H](O)[C@H](O)[C@H]8O)[C@@H](O)[C@H](O)[C@H]7O)CC[C@@]6(C)[C@]5(C)CC[C@H]4C3(C)C)O[C@H](CO)[C@@H](O)[C@@H]2O)[C@H](O)[C@@H](O)[C@@H]1O', 'FALSE');

Could you now look at the following compound, please?
Task: Please state whether viability at 100 µM is below 80% for O=C(/C=C/c1ccc(O)c(O)c1)O[C@@H]1C[C@](O)(C(=O)O)C[C@@H](O)[C@H]1O [CHLOROGENIC ACID]
Result: TRUE

====

test system: U-251; test: Inhibition of cell proliferation of human U251 cells assessed as cell viability at 100 uM after 72 hrs by sulforhodamine B assay; format: functional; conditions: U-251, 72 h, read-out: Activity
TEST READOUT: viability at 100 µM (%)
Numbers only, in %.

Use these answered entries as a reference point.
INSERT INTO measurements (compound, unit_label, data_value) VALUES
  ('COc1cc(CCC(=O)OCCc2ccc(O)c(O)c2)ccc1O', '%', 48.4),
  ('CC(C)=CCC[C@](C)(O[C@@H]1O[C@H](CO)[C@@H](O)[C@H](O)[C@H]1O)[C@H]1CC[C@]2(C)[C@@H]1[C@H](O)C[C@@H]1[C@@]3(C)CC[C@H](O[C@@H]4O[C@H](CO)[C@@H](O)[C@H](O)[C@H]4O[C@@H]4O[C@H](CO)[C@@H](O)[C@H](O)[C@H]4O)C(C)(C)[C@@H]3[C@@H](O)C[C@]12C', '%', 94.5),
  ('O=C(/C=C/c1ccc(O)c(O)c1)O[C@@H]1C[C@](O)(C(=O)O)C[C@@H](O)[C@H]1O', '%', 56.6),
  ('CC(=O)Oc1cc(CCOC(=O)CCc2ccc(O)c(OC(C)=O)c2)ccc1O', '%', 39.8),
  ('CC(C)=CCC[C@](C)(O)[C@H]1CC[C@]2(C)[C@@H]1[C@H](O)C[C@@H]1[C@@]3(C)CC[C@H](O)C(C)(C)[C@@H]3[C@@H](O[C@@H]3O[C@H](CO)[C@@H](O)[C@H](O)[C@H]3O[C@@H]3O[C@@H](C)[C@H](O)[C@@H](O)[C@H]3O)C[C@]12C [GINSENOSIDE RG2]', '%', 103);

Report viability at 100 µM for each item below.
1. CC(C)=CCC[C@](C)(O[C@@H]1O[C@H](CO[C@@H]2O[C@H](CO)[C@@H](O)[C@H](O)[C@H]2O)[C@@H](O)[C@H](O)[C@H]1O)[C@H]1CC[C@]2(C)[C@@H]1[C@H](O)C[C@@H]1[C@@]3(C)CC[C@H](O[C@@H]4O[C@H](CO)[C@@H](O)[C@H](O)[C@H]4O)C(C)(C)[C@@H]3CC[C@]12C [GYPENOSIDE XVII]
2. C/C=C/C(=O)OC[C@H]1O[C@@H](O[C@H]2[C@H](O[C@H]3CC[C@]4(C)[C@H]5C[C@@H](O)[C@@H]6[C@@H]([C@](C)(CCC=C(C)C)O[C@@H]7O[C@H](CO[C@@H]8O[C@H](CO)[C@@H](O)[C@H](O)[C@H]8O)[C@@H](O)[C@H](O)[C@H]7O)CC[C@@]6(C)[C@]5(C)CC[C@H]4C3(C)C)O[C@H](CO)[C@@H](O)[C@@H]2O)[C@H](O)[C@@H](O)[C@@H]1O
3. CC(C)=CCC[C@](C)(O[C@@H]1O[C@H](CO)[C@@H](O)[C@H](O)[C@H]1O)[C@H]1CC[C@]2(C)[C@@H]1[C@H](O)C[C@@H]1[C@@]3(C)CC[C@H](O[C@@H]4O[C@H](CO)[C@@H](O)[C@H](O)[C@H]4O)C(C)(C)[C@@H]3CC[C@]12C [GINSENOSIDE F2]
4. C[C@@H]1O[C@@H](OC[C@H]2O[C@@H](OC(=O)[C@]34CCC(C)(C)C[C@H]3C3=CC[C@@H]5[C@@]6(C)CC[C@H](O[C@@H]7O[C@H](CO[C@@H]8OC[C@H](O)[C@H](O)[C@H]8O)[C@@H](O)[C@H](O)[C@H]7O)C(C)(C)[C@@H]6CC[C@@]5(C)[C@]3(C)C[C@H]4O)[C@H](O[C@@H]3O[C@@H](C)[C@H](O[C@@H]4OC[C@@H](O)[C@H](O[C@@H]5OC[C@@H](O)[C@H](O)[C@H]5O)[C@H]4O)[C@@H](O)[C@H]3O)[C@@H](O)[C@@H]2O)[C@H](O)[C@H](O)[C@H]1O
5. CC(C)=CCC[C@](C)(O[C@@H]1O[C@H](CO)[C@@H](O)[C@H](O)[C@H]1O)[C@H]1CC[C@]2(C)[C@@H]1[C@H](O)C[C@@H]1[C@@]3(C)CC[C@H](O)C(C)(C)[C@@H]3[C@@H](O)C[C@]12C [GINSENOSIDE F1]

Result:
1: 86.5; 2: 97.2; 3: 64.6; 4: 72.3; 5: 80.9

Hi, could you look up viability at 100 µM for each item in my list?
1. C/C=C(\C)C(=O)O[C@H]1[C@H](O)[C@]2(CO)[C@H](O)C[C@]3(C)C(=CC[C@@H]4[C@@]5(C)CC[C@H](O[C@@H]6O[C@H](C(=O)O)[C@@H](O[C@@H]7O[C@H](CO)[C@@H](O)[C@H](O)[C@H]7O)[C@H](O)[C@H]6O[C@@H]6O[C@H](CO)[C@@H](O)[C@H](O)[C@H]6O)[C@@](C)(CO)[C@@H]5CC[C@]43C)[C@@H]2CC1(C)C
2. CC(=O)Oc1ccc(CCOC(=O)CCc2ccc(OC(C)=O)c(OC(C)=O)c2)cc1OC(C)=O
3. C/C=C(/C)C(=O)O[C@H]1[C@H](O)[C@]2(COC(C)=O)[C@H](O)C[C@]3(C)C(=CC[C@@H]4[C@@]5(C)CC[C@H](O[C@@H]6O[C@H](C(=O)OC)[C@@H](O[C@@H]7O[C@H](CO)[C@@H](O)[C@H](O)[C@H]7O)[C@H](O)[C@H]6O[C@@H]6O[C@H](CO)[C@@H](O)[C@H](O)[C@H]6O)[C@](C)(CO)[C@@H]5CC[C@]43C)[C@@H]2CC1(C)C
4. CC(C)=CC/C=C(/C)[C@H]1CC[C@]2(C)[C@@H]1[C@H](O)C[C@@H]1[C@@]3(C)CC[C@H](O)C(C)(C)[C@@H]3[C@@H](O)C[C@]12C

Result:
[92.7, 43.5, 22.2, 92.7]
